Target: T1, Cynomolgus OSM (cynomolgus, UniProt A0A2K5VPC6 26-221)
T1 construct: also called Cyno OSM; cynomolgus macaque OSM
T1 sequence: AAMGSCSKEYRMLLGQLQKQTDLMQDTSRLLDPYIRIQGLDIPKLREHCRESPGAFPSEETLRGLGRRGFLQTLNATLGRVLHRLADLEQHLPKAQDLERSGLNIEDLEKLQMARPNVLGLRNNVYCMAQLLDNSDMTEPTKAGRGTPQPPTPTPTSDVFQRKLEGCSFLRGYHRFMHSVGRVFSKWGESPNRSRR
Assay: BIAcore kinetics, purified antibody
Catalogue of binders with associated koff
Report the value in s⁻¹ with no unit label.

Consider the worked cases shown below.
>  <binder>
Humanised 10G8 H2L4 (antibody, V domains shown) VH: EVQLVESGGGLVQPGGSLRLSCAASGFTFSNYAMSWVRQAPGKGLEWVATISDGGSFTYYLDNVRGRFTISRDNAKNSLYLQMNSLRAEDTAVYYCARDVGHTTFWYFDVWGSGTLVTVSS VL: DIVMTQSPDSLAVSLGERATINCRASKSVSAAGYNFMHWYQQKPGQPPKVLIYYASNLESGVPDRFSGSGSGTDFTLTISSLQAEDVVVYYCLHSREFPFTFGGGTNVEIK

>  <measurement label>
koff

>  <readout unit>
s⁻¹

>  <recorded result>
9.01e-05

$$$$
>  <binder>
Humanised 10G8 H2L1 (antibody, V domains shown) VH: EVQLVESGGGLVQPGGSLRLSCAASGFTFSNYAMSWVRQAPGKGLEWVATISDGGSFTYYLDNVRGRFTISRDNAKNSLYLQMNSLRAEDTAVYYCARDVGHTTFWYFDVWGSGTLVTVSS VL: DIVMTQSPDSLAVSLGERATINCRASKSVSAAGYNFMHWYQQKPGQPPKVLIYYASNLESGVPDRFSGSGSGTDFTLTISSLQAEDVAVYYCLHSREFPFTFGGGTKVEIK

>  <measurement label>
koff

>  <readout unit>
s⁻¹

>  <recorded result>
0.000124

$$$$
>  <binder>
Humanised 10G8 H1L4 (antibody, V domains shown) VH: EMQLVESGGGLVQPGGSLRLSCAASGFTFSNYAMSWVRQAPGKGLEWVATISDGGSFTYYLDNVRGRFTISRDNAKNSLYLQMNSLRAEDTAVYYCARDVGHTTFWYFDVWGRGTLVTVSS VL: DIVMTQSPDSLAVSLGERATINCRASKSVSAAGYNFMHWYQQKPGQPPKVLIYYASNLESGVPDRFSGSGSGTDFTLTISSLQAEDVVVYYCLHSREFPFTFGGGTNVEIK

>  <measurement label>
koff

>  <readout unit>
s⁻¹

>  <recorded result>
0.000111

$$$$
>  <binder>
15E10h, non-competitive anti-OSM humanised antibody (antibody, human IgG1, kappa, V domains shown, also called Humanised 15E10; humanised 15E10) VH: QVQLVESGGGVVQPGRSLRLSCAASGFSLTNYGVHWVRQAPGKGLEWVAVIWRGGSTDYNAAFMSRFTISKDNSKNTLYLQMNSLRAEDTAVYYCAKSPNSNFYWYFDVWGRGTLVTVSS VL: EIVLTQSPATLSLSPGERATLSCSGSSSVSYMYWYQQKPGQAPRLLIEDTSNLASGIPARFSGSGSGTDYTLTISNLEPEDFAVYYCQQWSSYPPTFGQGTKLEIKR

>  <measurement label>
koff

>  <readout unit>
s⁻¹

>  <recorded result>
0.00031

$$$$

Query: # query: koff of entry Humanised 10G8 H0L4 (antibody, V domains shown) VH: EVQLVESGGGLVQPGGSLRLSCAASGFTFSNYAMSWVRQAPGKGLEWVATISDGGSFTYYLDNVRGRFTISRDNAKNSLYLQMNSLRAEDTAVYYCARDVGHTTFWYFDVWGRGTLVTVSS VL: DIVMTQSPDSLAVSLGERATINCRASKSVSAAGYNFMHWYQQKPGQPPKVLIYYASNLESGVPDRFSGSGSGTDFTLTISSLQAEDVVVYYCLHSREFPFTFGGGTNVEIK
Result: 0.000101

Query: Next up: 10G8 chimaera (antibody, human IgG1, kappa, V domains shown, Mouse V regions on human gamma 1 wild type and human kappa constant regions; the entries called VH/VL domain (chimera) are full chains; also called 10G8 chimera; 10G8 Chimæra) VH: EMQLVESGEGLVEPGGSLKLSCAASGFTFSNYAMSWVRQTPEKSLEWVATISDGGSFTYYLDNVRGRFTISRDNAKNNLYLQMSHLKSDDTAMYYCARDVGHTTFWYFDVWGSGTLVTVSS VL: DIVLTQSPVFLVVSLGQRATISCRASKSVSAAGYNFMHWYQQKPGQPPKVLIKYASNLESGVPARFSGSGSGTDFTLNIHPVEEEDAVTYYCLHSREFPFTFGGGTNLEIKR
Result: 9.95e-05

Query: Now this one: Humanised 10G8 H1L1 (antibody, V domains shown) VH: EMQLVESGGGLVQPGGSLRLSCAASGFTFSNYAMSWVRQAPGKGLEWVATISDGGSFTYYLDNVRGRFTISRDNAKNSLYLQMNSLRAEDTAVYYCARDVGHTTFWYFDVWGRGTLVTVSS VL: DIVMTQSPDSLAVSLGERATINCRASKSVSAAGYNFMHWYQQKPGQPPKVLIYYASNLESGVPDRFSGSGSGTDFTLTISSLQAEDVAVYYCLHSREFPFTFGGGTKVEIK
Result: 0.00011

Query: Here is the next binder: Humanised 10G8 H0L1 (antibody, human IgG1, kappa, V domains shown, IgG1 kappa; mature H0 heavy chain and mature L1 light chain; also called Humanised 10G8 H0L1 parent) VH: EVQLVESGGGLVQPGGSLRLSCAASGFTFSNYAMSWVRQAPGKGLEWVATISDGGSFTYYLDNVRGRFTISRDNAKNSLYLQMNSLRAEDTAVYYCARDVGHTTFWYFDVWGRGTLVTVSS VL: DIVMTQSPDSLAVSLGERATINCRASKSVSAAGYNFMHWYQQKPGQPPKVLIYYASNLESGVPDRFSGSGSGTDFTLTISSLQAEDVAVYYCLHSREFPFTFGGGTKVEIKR
Result: 0.000107
